Data origin: PubChem BioAssay (NCI)

Attribute: growth
Test system: NCI-H522 lung
protocol.description: NCI-60 one-dose screen, 48 h (100 = growth as untreated, 0 = no growth, -100 = all killed)
test.context: 10 µM unless noted
This is part of a sample that, as a whole, favours compounds with a hit. Of some 83,000 tested, about 20% had one in any assay.

| molecule | value.unit | growth |
| --- | --- | --- |
| COc1cccc2c1c(C(=O)C(=O)Nc1ccn[nH]1)cn2Cc1ccc(F)cc1 | % | 96.8 |
| COC(=O)[C@@H](C)C[C@H](Cc1ccccc1)NC(=O)c1csc([C@@H](C[C@H](C(C)C)N(C)C(=O)[C@H](C)NC(=O)[C@H]2CCCCN2C)OC(C)=O)n1 | % | 8.96 |
| Cc1c2cc(Cl)c3ccccc3c2c[n+]2ccccc12 | % | 17.1 |
| O=C(CC1(O)C(=O)N(Cc2ccccc2)c2ccc(Br)cc21)c1ccc(C(=O)NCC2CCC3(CC2)OOC2(CCCCC2)OO3)cc1 (centres undefined) | % | 2.53 |
| COc1ccc(/C=C\c2cc(OC)c(OC)c(OC)c2)cc1OCC(=O)Nc1nc2ccc(F)cc2s1 | % | 6.14 |
| CC(=O)O[C@H](C[C@H](C(C)C)N(C)C(=O)[C@@H](NC(=O)[C@H]1CCCCN1C)C(C)C)c1nc(C(=O)N[C@@H](Cc2ccccc2)C[C@H](C)C(=O)O)c(C)s1 | % | -4.18 |
| CO[C@H](C(=O)O)[C@@H]1Cc2cc3cc(OC4CC(OC5CC(O)C(O)C(C)O5)C(O)C(C)O4)c(C)c(O)c3c(O)c2C(=O)[C@H]1OC1CC(OC2CC(OC3CC(C)(O)C(O)C(C)O3)C(O)C(C)O2)C(O)C(C)O1 (some centres undefined) | % | -3.78 |
| CCC(=O)Nc1ccc(Cl)c(Cl)c1 | % | 84.7 |
| O=C1C2CC=CCC2C(=O)N1SC(Cl)(Cl)Cl (centres undefined) | % | -57.1 |
| CCCCOc1ccc(C(N)Cc2ccccc2)cc1 (centres undefined) | % | 93 |
| CC(=O)c1ccc(C(=O)NCC2CCC3(CC2)OOC2(CCCCC2)OO3)cc1 | % | 60.8 |
| CC(=O)O[C@H](C[C@H](C(C)C)N(C)C(=O)[C@@H](NC(=O)[C@H]1CCCCN1C)C(C)C)c1nc(C(=O)N[C@@H](Cc2ccccc2)C[C@H](C)C(=O)O)c(CCOCc2ccccc2)s1 | % | -47.4 |
| CC12CC=CCC1CCC1C2CCC2(C)C(c3ccc(=O)oc3)CCC12O (centres undefined) | % | -19.9 |
| C/C=C(\C)C(=O)O[C@@H]1C(O)[C@H]2OC(COC(=O)CCC(=O)CCCCCC[C@H](CCCCC)O[C@@H]3OC(C)[C@H](OC(C)=O)C(O)[C@H]3O2)[C@H]1OC(=O)/C=C/c1ccccc1 (some centres undefined) | % | 20.9 |
| OCCCCCNC1CCCCC1 | % | 67.8 |
| O=C([O][Hg][c]1ccccc1)c1ccccc1 | % | -64.1 |
| Oc1c(O)c(Cl)c(Cl)c(Cl)c1Cl | % | -19.6 |
| CC(=O)OC[C@]1(C)C=C2C(=O)[C@](C)(O)C3(CC3)C(C)=C2[C@H]1OC(=O)N(C)CCN(C)C(=O)OC(C)(C)C | % | -47 |
| COC(=O)[C@@H](C)C[C@H](Cc1ccccc1)NC(=O)c1csc([C@@H](C[C@H](C(C)C)N(C)C(=O)[C@@H](NC(=O)[C@H]2CCCCN2C)C2CCCCC2)OC(C)=O)n1 | % | -32.1 |
